tested-on: T1, recombinant human IL-23R/Fc chimera (R&D Systems) (human, UniProt Q5VWK5 24-355)
T1 construct: Bought; also called rhIL23RFc
T1 sequence (looked up): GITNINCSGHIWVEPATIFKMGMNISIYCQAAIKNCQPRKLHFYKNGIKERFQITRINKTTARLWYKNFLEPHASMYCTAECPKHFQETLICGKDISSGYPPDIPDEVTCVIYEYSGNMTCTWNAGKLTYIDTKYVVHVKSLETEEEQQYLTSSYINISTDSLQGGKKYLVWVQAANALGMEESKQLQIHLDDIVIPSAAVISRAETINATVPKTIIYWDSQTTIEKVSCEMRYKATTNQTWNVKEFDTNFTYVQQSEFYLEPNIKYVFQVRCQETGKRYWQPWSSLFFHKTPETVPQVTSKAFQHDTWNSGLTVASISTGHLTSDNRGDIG
assay-summary: SPR
Experimental: A Biacore 3000 biosensor (GE Healthcare) was used to evaluate the interaction of human IL-23R and receptor binders. Immobilization of an anti-human IgG Fc antibody (GE Healthcare) to the CM5 chip (GE Healthcare) was performed using standard amine coupling chemistry, and this modified surface was used to capture a recombinant human IL-23R/Fc fusion protein (R&D Systems). A low-density receptor surface, less than 200 RU, was used for all of the analyses. […]
readout-name: koff (s⁻¹)
Field: numeric (s⁻¹). Do not append units.

// known answers, use as guide
INSERT INTO results (binder, readout_name, measured_result) VALUES
  ('101-80-5H3 ATRIMER complex (designed binder) EPPTQKPKKIVNAKKDVVNTKMFEELKSRLDTLAQEVALLKEQQALQTVCLKGTKVHMKCFLAFTQTKTFHEASEDCISRGGTLSTPQTGSENDALYEYLRQSVGNEAEIWLGLNGSALTNTWVDMTGARIAYKNWEPPAPYHPMAAGVFGENCAVLSGAANGKWFDKRCRDQLPYICQFGIV', 'koff', 0.000327),
  ('101-51-1A6 ATRIMER complex (designed binder, Forms a homotrimer through the tetranectin coiled coil; one protomer is given., not shown: C-terminal tag: His/Myc (pANA4) or HA-StrepII (pANA10)) EPPTQKPKKIVNAKKDVVNTKMFEELKSRLDTLAQEVALLKEQQALQTVCLKGTKVHMKCFLAFTQTKTFHEASEDCISRGGTLSTPQTGSENDALYEYLRQSVGNEAEIWLGLNGSALTNTWVDMTGARIAYKNWENNLSAQPRGGFGYFGENCAVLSGAANGKWFDKRCRDQLPYICQFGIV', 'koff', 0.000415);

Next binder, please.
# return recorded koff for entry 001-87.A9E monomeric CTLD (designed binder, C-terminal tag not specified) ALQTVCLKGTKVHMKCFLAFTQTKTFHEASEDCISRGGTLSTPQTGSENDALYEYLRQSVGNEAEIWLGLNGSALTNTWVDMTGARIAYKNWETEITAQPDGGLGYWGENCAVLSGAANGKWFDKRCRDQLPYICQFGIV
0.0041
